Just for reference, ChEMBL document CHEMBL1150282 is where these values come from.

# Tested on: Lung
# experimentalDetails: Biodistribution in Sprague-Dawley rat lung at 15 uCi, iv after 120 mins
# Type: ADME, organism-based
# condition: in vivo, 2 h
Decision: Drug uptake >= 0.2 % ID/g yields rule met, all other cases yield rule not met.

CC(F)COc1ccc(COc2cnn(C(C)(C)C)c(=O)c2Cl)cc1 (configuration not stated)
rule not met
CC(C)(C)n1ncc(OCc2ccc(OCCCF)cc2)c(Cl)c1=O
rule not met
CCC(CF)Oc1ccc(COc2cnn(C(C)(C)C)c(=O)c2Cl)cc1 (configuration not stated)
rule met
CC(C)(C)n1ncc(OCc2ccc(CCCCF)cc2)c(Cl)c1=O
rule not met
[2H]C([2H])(Oc1cnn(C(C)(C)C)c(=O)c1Cl)c1ccc(COC([2H])([2H])C([2H])([2H])F)cc1
rule not met
CC(C)(C)n1ncc(OCc2ccc(COCCF)cc2)c(Cl)c1=O
rule met

Input: # bool: Drug uptake of CC(F)CCc1ccc(COc2cnn(C(C)(C)C)c(=O)c2Cl)cc1 (configuration not stated) >= 0.2 % ID/g
Output: rule not met

----------
# Tested on: Liver
# experimentalDetails: Biodistribution in Sprague-Dawley rat liver at 15 uCi, iv after 120 mins
# Type: ADME, organism-based
# condition: in vivo, 2 h
readoutKind: Drug uptake (% ID/g)
Use % ID/g as the unit, but write only the number.

The examples below pair each entry with its known result.
CC(F)COc1ccc(COc2cnn(C(C)(C)C)c(=O)c2Cl)cc1 (configuration not stated)
0.4
CC(F)CCc1ccc(COc2cnn(C(C)(C)C)c(=O)c2Cl)cc1 (configuration not stated)
0.63
CC(C)(C)n1ncc(OCc2ccc(COCCF)cc2)c(Cl)c1=O [FLURPIRIDAZ]
0.55
CC(C)(C)n1ncc(OCc2ccc(OCCCF)cc2)c(Cl)c1=O
0.55
CCC(CF)Oc1ccc(COc2cnn(C(C)(C)C)c(=O)c2Cl)cc1 (configuration not stated)
0.39

The reported Drug uptake of the compound CC(C)(C)n1ncc(OCc2ccc(CCCCF)cc2)c(Cl)c1=O was 0.62

The reported Drug uptake of the compound [2H]C([2H])(Oc1cnn(C(C)(C)C)c(=O)c1Cl)c1ccc(COC([2H])([2H])C([2H])([2H])F)cc1 was 0.44

----------
# experimentalDetails: Ratio of drug uptake in heart to liver of Sprague-Dawley rat at 15 uCi, iv after30 mins
# Format: ADME, organism-based
# condition: in vivo, 0.5 h
Decision: Activity >= 2 yields condition met, all other cases yield condition not met.

CCC(CF)Oc1ccc(COc2cnn(C(C)(C)C)c(=O)c2Cl)cc1 (configuration not stated)
condition not met

Input: # bool: Activity of CC(C)(C)n1ncc(OCc2ccc(CCCCF)cc2)c(Cl)c1=O >= 2
Output: condition not met

Input: # bool: Activity of CC(F)COc1ccc(COc2cnn(C(C)(C)C)c(=O)c2Cl)cc1 (configuration not stated) >= 2
Output: condition met

Input: # bool: Activity of CC(C)(C)n1ncc(OCc2ccc(COCCF)cc2)c(Cl)c1=O [FLURPIRIDAZ] >= 2
Output: condition met

Input: # bool: Activity of [2H]C([2H])(Oc1cnn(C(C)(C)C)c(=O)c1Cl)c1ccc(COC([2H])([2H])C([2H])([2H])F)cc1 >= 2
Output: condition not met

Input: # bool: Activity of CC(F)CCc1ccc(COc2cnn(C(C)(C)C)c(=O)c2Cl)cc1 (configuration not stated) >= 2
Output: condition not met

Input: # bool: Activity of CC(C)(C)n1ncc(OCc2ccc(OCCCF)cc2)c(Cl)c1=O >= 2
Output: condition not met
